- Test system: Staphylococcus aureus
- assay summary: Antimicrobial activity against Staphylococcus aureus ISP447 by serial dilution method
- Assay type: functional
measured endpoint: MIC

compound | MIC
CC[C@H]1OC(=O)[C@H](C)[C@@H](OCc2cn(C34CC5CC(CC(C5)C3)C4)nn2)[C@H](C)[C@@H](O[C@@H]2O[C@H](C)C[C@H](N(C)C)[C@H]2O)[C@@]2(C)CC(C)=C(O2)[C@H](C)[C@@H](OC(=O)C(C)C)[C@]1(C)OC(=O)C(C)C | 16 µg/mL
CC[C@H]1OC(=O)[C@H](C)[C@@H](OCc2cn(CC(=O)OCc3ccccc3)nn2)[C@H](C)[C@@H](O[C@@H]2O[C@H](C)C[C@H](N(C)C)[C@H]2O)[C@@]2(C)CC(C)=C(O2)[C@H](C)[C@@H](OC(=O)C(C)C)[C@]1(C)OC(=O)C(C)C | 64 µg/mL
CC[C@H]1OC(=O)[C@H](C)[C@@H](OCc2cn(CC(=O)Nc3ccccn3)nn2)[C@H](C)[C@@H](O[C@@H]2O[C@H](C)C[C@H](N(C)C)[C@H]2O)[C@@]2(C)CC(C)=C(O2)[C@H](C)[C@@H](OC(=O)C(C)C)[C@]1(C)OC(=O)C(C)C | 32 µg/mL

[in] Form field: MIC recorded for CC[C@H]1OC(=O)[C@H](C)[C@@H](OCc2cn(-c3cccc4ccccc34)nn2)[C@H](C)[C@@H](O[C@@H]2O[C@H](C)C[C@H](N(C)C)[C@H]2O)[C@@]2(C)CC(C)=C(O2)[C@H](C)[C@@H](OC(=O)C(C)C)[C@]1(C)OC(=O)C(C)C with Staphylococcus aureus (enter value)
[out] 32 µg/mL

[in] API: value(readout= MIC, system= Staphylococcus aureus, query= CC[C@H]1OC(=O)[C@H](C)[C@@H](OCc2cn(CSc3ccccc3)nn2)[C@H](C)[C@@H](O[C@@H]2O[C@H](C)C[C@H](N(C)C)[C@H]2O)[C@@]2(C)CC(C)=C(O2)[C@H](C)[C@@H](OC(=O)C(C)C)[C@]1(C)OC(=O)C(C)C )
[out] 16 µg/mL

[in] Look up MIC with Staphylococcus aureus for this compound: CC[C@H]1OC(=O)[C@H](C)[C@@H](OCc2cn(-c3cccnc3)nn2)[C@H](C)[C@@H](O[C@@H]2O[C@H](C)C[C@H](N(C)C)[C@H]2O)[C@@]2(C)CC(C)=C(O2)[C@H](C)[C@@H](OC(=O)C(C)C)[C@]1(C)OC(=O)C(C)C
[out] 64 µg/mL

[in] Hi! What's the reported MIC for CC[C@H]1OC(=O)[C@H](C)[C@@H](OCc2cn(Cc3ccccc3)nn2)[C@H](C)[C@@H](O[C@@H]2O[C@H](C)C[C@H](N(C)C)[C@H]2O)[C@@]2(C)CC(C)=C(O2)[C@H](C)[C@@H](OC(=O)C(C)C)[C@]1(C)OC(=O)C(C)C on Staphylococcus aureus?
[out] 16 µg/mL

[in] Quick check: MIC on Staphylococcus aureus, item CC[C@H]1OC(=O)[C@H](C)[C@@H](OCc2cn(-c3cnc4ccccc4c3)nn2)[C@H](C)[C@@H](O[C@@H]2O[C@H](C)C[C@H](N(C)C)[C@H]2O)[C@@]2(C)CC(C)=C(O2)[C@H](C)[C@@H](OC(=O)C(C)C)[C@]1(C)OC(=O)C(C)C ?
[out] 32 µg/mL

---

- System: Staphylococcus aureus
- assay summary: Antimicrobial activity against Staphylococcus aureus ISP447 by serial dilution method
- Type: functional
measured endpoint: MIC

Example entries begin here.
smiles | measured endpoint | observed
CC[C@H]1OC(=O)[C@H](C)[C@@H](OCc2cn(CCO)nn2)[C@H](C)[C@@H](O[C@@H]2O[C@H](C)C[C@H](N(C)C)[C@H]2O)[C@@]2(C)CC(C)=C(O2)[C@H](C)[C@@H](OC(=O)C(C)C)[C@]1(C)OC(=O)C(C)C | MIC | > 128 µg/mL
CC[C@H]1OC(=O)[C@H](C)[C@@H](O[C@H]2C[C@@](C)(OC)[C@@H](O)[C@H](C)O2)[C@H](C)[C@@H](O[C@@H]2O[C@H](C)C[C@H](N(C)C)[C@H]2O)[C@](C)(O)C[C@@H](C)C(=O)[C@H](C)[C@@H](O)[C@]1(C)O | MIC | > 256 µg/mL

[in] State the recorded MIC for this entry: CC[C@H]1OC(=O)[C@H](C)[C@@H](O[C@H]2C[C@@](C)(OC)[C@@H](OC=O)[C@H](C)O2)[C@H](C)[C@@H](O[C@@H]2O[C@H](C)C[C@H](N(C)C)[C@H]2OC(C)=O)[C@@]2(C)CC(C)=C(O2)[C@H](C)[C@@H](OC(=O)C(C)C)[C@]1(C)OC(=O)C(C)C
[out] 16 µg/mL

The reported numbers originate from ChEMBL document CHEMBL1140490.
